Assay: Test example 12: solubility test in physiological saline
Type: physicochemical
Conditions: saline or isotonic, thermodynamic from solid, 37° C., prepared at 1000 μg/mL
Below, each entry is listed alongside its reported solubility at 1 h.
Number in µg/mL, nothing else.

{"structureSmiles": "CS(=O)(=O)Nc1cccc([C@@H](O)CNCCOc2ccc3c(C4CC4)n[nH]c3c2)c1", "parameter": "solubility at 1 h", "measuredValue": 999}

solubility at 1 h measured on `CS(=O)(=O)Nc1cccc([C@@H](O)CNCCOc2ccc3c(C4CCC4)n[nH]c3c2)c1` = 999
